Assay comment: Time in which 1/2 of the initial amount disappeared in human blood.
Assay type: ADME, organism-based
Short version: half-life at least 6 min is criterion met, less is criterion not met.

Say whether CC(C)NCC(O)COC(=O)c1cccc(F)c1 (stereo unspecified) shows half-life of 6 min or more.
criterion met

Has CC(C)(C)NCC(O)COC(=O)c1ccc([N+](=O)[O-])cc1 (stereo unspecified) a recorded half-life greater than or equal to 6 min?
criterion not met

Decide: is the reported value of half-life for CC(C)NCC(O)COC(=O)c1ccc(F)cc1 (stereo unspecified) equal to or greater than 6 min?
criterion not met

# check: half-life of CC(C)NCC(O)COC(=O)c1ccccc1Cl (stereo unspecified) is greater than or equal to 6 min
criterion not met

Dear colleague, could you confirm whether CC(C)(C)NCC(O)COC(=O)CCc1ccccc1 (stereo unspecified) has half-life at or above 6 min?
criterion met

Decide: is the reported value of half-life for CC(C)NCC(O)COC(=O)c1ccccc1F (stereo unspecified) equal to or greater than 6 min?
criterion not met

Decide: is the reported value of half-life for CC(C)(C)NCC(O)COC(=O)C(c1ccccc1)c1ccccc1 (stereo unspecified) equal to or greater than 6 min?
criterion met

Please tell me: is the molecule CC(C)NCC(O)COC(=O)c1ccccc1 (stereo unspecified) at or over 6 min in terms of half-life?
criterion not met

In plain terms: is recorded half-life at least 6 min for CC(C)NCC(O)COC(=O)c1ccc(N)cc1 (stereo unspecified) ?
criterion met
